Readings of phosphorylation enrichment for the listed sequences
# Target Of Assay: Fyn (UniProt P06241)
# Sequence (P06241 whole entry, looked up): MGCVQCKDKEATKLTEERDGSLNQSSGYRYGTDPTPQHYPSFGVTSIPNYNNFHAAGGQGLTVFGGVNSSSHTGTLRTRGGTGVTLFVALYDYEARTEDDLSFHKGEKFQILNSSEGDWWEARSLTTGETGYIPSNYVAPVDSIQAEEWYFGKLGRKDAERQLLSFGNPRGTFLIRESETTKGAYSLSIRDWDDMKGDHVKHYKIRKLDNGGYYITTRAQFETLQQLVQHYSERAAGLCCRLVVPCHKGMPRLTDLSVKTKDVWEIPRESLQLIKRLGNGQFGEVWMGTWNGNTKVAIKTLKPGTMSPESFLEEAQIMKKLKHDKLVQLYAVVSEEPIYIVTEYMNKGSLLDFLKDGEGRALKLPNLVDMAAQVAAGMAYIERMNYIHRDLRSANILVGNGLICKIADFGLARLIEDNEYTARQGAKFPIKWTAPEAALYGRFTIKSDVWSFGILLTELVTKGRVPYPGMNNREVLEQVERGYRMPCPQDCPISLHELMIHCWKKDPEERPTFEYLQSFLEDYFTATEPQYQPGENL
# Experiment Summary: phosphorylation enrichment, bacterial display (enrichment ratio); higher = better substrate or ligand; peptides without Tyr show the background;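 note: 11-residue human phosphosite peptides and single-mutation variants displayed on the E. coli surface, counted by deep sequencing, each peptide's frequency after selection divided by its frequency in the unselected input library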;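 note: frequency after pTyr selection over input frequency; kinase dosed for 20-30% of maximal phosphorylation in three min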
Measured Property: phosphorylation enrichment

>>> print(df.to_string())
                  sequence_string       target_of_assay           measured_property  observed_value
0         LYSGDYYRIQG [DDR2_Y740]  Fyn (UniProt P06241)  phosphorylation enrichment            11.5
1      RDHFGYRQSVT [CD55_Y245_YF]  Fyn (UniProt P06241)  phosphorylation enrichment           0.435
2       EYGRRYGFSRQ [CCDC93_Y209]  Fyn (UniProt P06241)  phosphorylation enrichment           0.424
3  DPEATYTTSGS [EPHA2_Y772_G777S]  Fyn (UniProt P06241)  phosphorylation enrichment           0.518

====

# System: AncSZ
# Experiment Summary: phosphorylation enrichment, bacterial display (enrichment ratio); higher = better substrate or ligand; peptides without Tyr show the background
Would you mind labelling by phosphorylation enrichment? At or over 0.9 is rule met, under is rule not met.

                        sequence_string   label_value
 0        KLPDAYEPLIL [G6PD_Y437_R439P]      rule met
 1             THLAPYSDELR [APOA1_Y190]  rule not met
 2        EAVSIYQFYGQ [CBLC_Y402_H405Y]      rule met
 3     AESPEHVHMYT [FAM111A_Y511_Y511H]  rule not met
 4      LADKPYTFEFF [FXN_Y118_D122Y_YF]      rule met
 5          ALDRPYTSKHS [NANS_Y71_E68D]  rule not met
 6        QFPDIYAREEV [CRX_Y67_V66I_YF]      rule met
 7        RCYVYYYSYLL [PTEN_Y177_R173C]      rule met
 8            DMQTLYVNTAA [SMCHD1_Y403]  rule not met
 9         SLLKDYSPQLQ [OTC_Y345_T343K]  rule not met
10  KLFFIYTPGTT [SLC27A4_Y245_S247P_YF]      rule met
11            VLRRVYVDFEG [KMT2B_Y1707]  rule not met
12     LVMFFYAIFGM [SCN1A_Y1684_I1683F]      rule met
13       PKGTGCIKTEL [STAT1_Y701_Y701C]      rule met
14      YAKSVYWDNTL [NUP107_Y296_E298D]  rule not met
15        SVTCTFSPALN [TP53_Y126_Y126F]      rule met
16     GDYLSYREFHL [ERBIN_Y1107_S1112L]      rule met
17        KHTLSFVDVGT [SDHA_Y629_Y629F]  rule not met
18            TFLRTYTDAMQ [TSPAN7_Y124]  rule not met
19            ERWLKYFPIEQ [HS3ST5_Y244]      rule met
20              MDNQEYKDAYK [BRDT_Y331]      rule met
21          RKTAKYLLKGE [CDH5_Y82_N79T]  rule not met
22            GGDGSYVSVPS [TNNI3K_Y425]  rule not met
23             LNCAGYCDALE [MTUS1_Y151]      rule met
24             TTPAVYARVAK [CTRB2_Y246]  rule not met
25             QGIPRYHSQSP [FOXF1_Y331]      rule met
26            DAMQTYNGNDE [TSPAN7_Y131]      rule met
27       LTVVIYVLVGR [EPHA3_Y561_I564V]      rule met
28             ASSPVYVPTTR [GATA6_Y188]  rule not met
29            KFGTNYRVGSS [CPO_Y278_YF]      rule met
30         EKEQNYDLTQV [ECD_Y448_E452Q]      rule met
31     QRRNVYFFSFL [PTEN_Y176_Y174N_YF]      rule met
32         IGSQRYQLGVR [RB1_Y446_K447Q]  rule not met
33        ADKAAYLQSMN [MYH2_Y389_L393M]  rule not met
34               MKKKIYAMGGG [GAN_Y424]  rule not met
35        QRRNVYYYSYL [PTEN_Y176_Y174N]      rule met
36     RRNVFYFSFLL [PTEN_Y177_Y174N_YF]      rule met
37             LYSINYLHFGE [KDM4C_Y201]      rule met
38    RESFKYLPSSL [CXXC1_Y218_F219L_YF]  rule not met
39        NTPNAYLRVNV [ADD2_Y440_T439A]  rule not met

====

# Tested on: Fer (mouse)
# Experiment Summary: phosphorylation enrichment, bacterial display (enrichment ratio); higher = better substrate or ligand; peptides without Tyr show the background
Readings of phosphorylation enrichment for the listed sequences
Measured Property: phosphorylation enrichment

In [3]: df
Out[3]:
                        sequence_string           measured_property  observed_value
 0               ERLWDYGMSSS [F8_Y1728]  phosphorylation enrichment           0.483
 1       TLQVMYGCDVG [HLA-B_Y123_S121V]  phosphorylation enrichment           0.509
 2    LSVEIHDRREF [ITGB7_Y753_Y753H_YF]  phosphorylation enrichment           0.795
 3        QELRRYLKSGI [MICA_Y194_V199I]  phosphorylation enrichment           0.534
 4            TAALWYIFSHT [ENG_Y612_YF]  phosphorylation enrichment           0.496
 5         KNRDVYSSDFF [USP24_Y2134_YF]  phosphorylation enrichment           0.429
 6       LPKVSYMKAID [GLRA1_Y307_V308M]  phosphorylation enrichment            0.65
 7            ERWLKYFPIEQ [HS3ST5_Y244]  phosphorylation enrichment           0.566
 8      PQDVTYARLHS [LILRB4_Y412_Q414R]  phosphorylation enrichment           0.786
 9        CPTIHYNYMCN [TP53_Y234_T230P]  phosphorylation enrichment           0.621
10      VVEYGYEFFAK [PPP1CB_Y254_D252Y]  phosphorylation enrichment           0.835
11           RLLVVYPWNQR [HBB_Y36_T39N]  phosphorylation enrichment           0.595
12          RESFKYFPSSL [CXXC1_Y218_YF]  phosphorylation enrichment           0.295
13          FFNSEYGELSE [FLT4_Y1337_YF]  phosphorylation enrichment           0.533
14      RMQLPYDSTWE [PDGFRB_Y589_P584R]  phosphorylation enrichment           0.434
15                          KINKMYSDRAM  phosphorylation enrichment           0.336
16       TSYQMYDKGLV [IARS2_Y231_F227S]  phosphorylation enrichment           0.405
17    SRDDFYETIAM [NPY1R_Y347_D346Y_YF]  phosphorylation enrichment            7.71
18      KSLFHHRQYSA [CPS1_Y1491_Y1491H]  phosphorylation enrichment           0.439
19     LVMFISAIFGM [SCN1A_Y1684_Y1684S]  phosphorylation enrichment            1.33
20             ELRGTYTSLQQ [KIF3C_Y574]  phosphorylation enrichment           0.428
21     LVMFFYAIFGM [SCN1A_Y1684_I1683F]  phosphorylation enrichment           0.708
22            NTDETYCIDNE [TUBB2B_Y200]  phosphorylation enrichment           0.724
23        PLDEEYFTLQI [TP53_Y327_G325E]  phosphorylation enrichment           0.691
24        EEGENYQKGEQ [CHGB_Y173_R178Q]  phosphorylation enrichment            0.51
25            NNPAYYVLEGV [INPPL1_Y987]  phosphorylation enrichment           0.525
26  EQKKFSNAMKK [SCN5A_Y1495_Y1495S_YF]  phosphorylation enrichment           0.331
27      LADKPYTFEFF [FXN_Y118_D122Y_YF]  phosphorylation enrichment            1.25
28         FFVVEYRDQKP [MUC17_Y4332_YF]  phosphorylation enrichment            0.53
29        PLDGEYFTLRI [TP53_Y327_Q331R]  phosphorylation enrichment           0.971
30              HLVLNYGVCVC [JAK2_Y613]  phosphorylation enrichment            0.99
31          IDAICYFRMEN [NPHS2_Y194_YF]  phosphorylation enrichment           0.484
32             DRLASYLEKVR [KRT13_Y118]  phosphorylation enrichment           0.424
33       YKWAVYCIIGR [NUP93_Y391_R388W]  phosphorylation enrichment           0.646
34               GGRIDYIAGLD [APRT_Y60]  phosphorylation enrichment           0.521
35         PVEAAYQKVVA [HBB_Y131_Q128E]  phosphorylation enrichment           0.558
36          IQKKFYRAILE [CHD7_Y1218_YF]  phosphorylation enrichment           0.398
37        SVVAPYEPPEV [TP53_Y220_V218A]  phosphorylation enrichment           0.578
38        KLPDAYEPLIL [G6PD_Y437_R439P]  phosphorylation enrichment             2.5
39         GNLLIYTEFGN [HGD_Y166_K171N]  phosphorylation enrichment           0.775
40      VILARYGPAWR [CYP2D6_Y124_F120I]  phosphorylation enrichment           0.407
41        VPVNGYQPVTA [ROR2_Y824_P828T]  phosphorylation enrichment           0.336
42           LENSTYQFIRV [CRB1_Y760_YF]  phosphorylation enrichment            15.8
43              LYSGDYYRIQG [DDR2_Y740]  phosphorylation enrichment            1.81
